EXPERIMENTAL_TARGET: RXRa (Homo sapiens, UniProt P19793)
Sequence (P19793 whole entry): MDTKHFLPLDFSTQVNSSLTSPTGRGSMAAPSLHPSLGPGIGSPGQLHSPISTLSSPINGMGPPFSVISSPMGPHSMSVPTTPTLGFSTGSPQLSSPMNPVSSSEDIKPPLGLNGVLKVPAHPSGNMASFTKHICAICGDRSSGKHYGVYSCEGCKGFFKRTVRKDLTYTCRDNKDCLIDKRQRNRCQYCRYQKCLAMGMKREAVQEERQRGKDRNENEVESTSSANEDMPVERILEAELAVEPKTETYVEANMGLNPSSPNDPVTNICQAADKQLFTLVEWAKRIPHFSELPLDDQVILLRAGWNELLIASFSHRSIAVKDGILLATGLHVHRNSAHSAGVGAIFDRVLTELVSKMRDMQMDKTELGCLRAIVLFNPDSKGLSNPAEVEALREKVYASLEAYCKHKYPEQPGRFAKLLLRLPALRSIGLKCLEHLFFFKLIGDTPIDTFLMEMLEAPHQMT
METHOD: no ligand; PBM; 180 nM; PBS pH 7.4, 2% milk, 0.02% Triton X-100, 1 mM DTT, BSA, 0.4 mg/ml salmon testes DNA
CONDITION_SUMMARY: tags: His cleaved; chain copies: 2; label: surface-attached array probe

{"BINDER": "NRC3_wobSeed37_DR1_C7A_o1 (dsDNA) DNA 1: GCCGTCAAAGGTCAAAGGTCAGTGAAGAGATGACGGGCGATTGACAGCGTAGAATGAAGG DNA 2: CCTTCATTCTACGCTGTCAATCGCCCGTCATCTCTTCACTGACCTTTGACCTTTGACGGC", "binding signal": "11 PBM z-score against 500 random probes"}
